Each record here notes measured EC50.
STUDY TARGET: UniProt:P38532
Sequence (P38532 whole entry): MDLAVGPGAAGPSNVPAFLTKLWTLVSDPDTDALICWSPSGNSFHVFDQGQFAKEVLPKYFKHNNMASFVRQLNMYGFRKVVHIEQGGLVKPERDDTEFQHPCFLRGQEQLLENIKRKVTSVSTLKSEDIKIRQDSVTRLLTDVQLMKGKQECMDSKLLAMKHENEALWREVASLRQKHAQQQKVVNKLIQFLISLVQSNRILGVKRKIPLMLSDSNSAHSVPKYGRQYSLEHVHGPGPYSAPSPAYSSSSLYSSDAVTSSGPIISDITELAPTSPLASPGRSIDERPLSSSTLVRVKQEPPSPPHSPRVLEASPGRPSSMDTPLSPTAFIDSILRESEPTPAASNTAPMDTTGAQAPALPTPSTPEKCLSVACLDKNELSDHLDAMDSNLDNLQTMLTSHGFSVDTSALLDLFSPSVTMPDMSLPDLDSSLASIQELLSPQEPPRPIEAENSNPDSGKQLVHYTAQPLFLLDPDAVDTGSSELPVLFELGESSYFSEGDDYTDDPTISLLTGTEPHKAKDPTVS
EXPERIMENT NOTES: inhibition of MG132-induced HSE-luciferase signal, confirmation, cell-based, NIH3T3, luminescence, dose retest (AID 2382);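 further: NIH3T3 fibroblasts with HSF1-driven luciferase reporter stressed by proteasome inhibitor MG132; luminescence from HSF1-driven luciferase expression after 8 hours of MG132 stress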
Assay type: functional
Calls of active or inactive are those of the source. No stated cut-off is given here; in the data, actives have a measured EC50 and inactives only a lower limit.

>  <MOLECULE>
CN(C)C(=O)N1CCC(C(=O)NCc2ccc(F)cc2Cl)CC1

>  <STUDY TARGET>
UniProt:P38532

>  <EC50>
> 195 µM (not active)

$$$$
>  <MOLECULE>
Cc1cc(C(=O)NNS(=O)(=O)c2ccc(F)cc2)nn1C(C)(C)C

>  <STUDY TARGET>
UniProt:P38532

>  <EC50>
> 195 µM (not active)

$$$$
>  <MOLECULE>
N=c1c2c(ncn1CCCO)Oc1c(ccc3ccccc13)C2c1ccccc1 (stereo unspecified)

>  <STUDY TARGET>
UniProt:P38532

>  <EC50>
> 195 µM (not active)

$$$$
>  <MOLECULE>
CCOC(=O)C1=C(C)N(CCC(=O)O)C(=O)NC1c1ccccc1Cl (stereo unspecified)

>  <STUDY TARGET>
UniProt:P38532

>  <EC50>
> 195 µM (not active)

$$$$
>  <MOLECULE>
Cc1ccc(-n2cc(C(=O)c3ccccc3O)cn2)cc1

>  <STUDY TARGET>
UniProt:P38532

>  <EC50>
< 0.16 µM (active)

$$$$
>  <MOLECULE>
Cn1c(=O)c2c(nc(Oc3cccc(O)c3)n2C)n(C)c1=O

>  <STUDY TARGET>
UniProt:P38532

>  <EC50>
> 195 µM (not active)

$$$$
>  <MOLECULE>
C=CCOc1ccc(/C=C2\SC(=S)N(CCC(=O)O)C2=O)cc1

>  <STUDY TARGET>
UniProt:P38532

>  <EC50>
5.69 µM (active)

$$$$
>  <MOLECULE>
COc1cc(C(C(=O)NCc2ccccc2)N(Cc2ccco2)C(=O)c2cnccn2)cc(OC)c1OC (stereo unspecified)

>  <STUDY TARGET>
UniProt:P38532

>  <EC50>
> 195 µM (not active)

$$$$
>  <MOLECULE>
O=C(c1ccc(-c2ccccc2)c(F)c1)C1CCCN(C(=O)c2cncs2)C1 (stereo unspecified)

>  <STUDY TARGET>
UniProt:P38532

>  <EC50>
> 195 µM (not active)

$$$$
>  <MOLECULE>
O=C(Oc1c(-c2ccccc2Cl)oc2ccccc2c1=O)c1ccc(Cl)cc1

>  <STUDY TARGET>
UniProt:P38532

>  <EC50>
> 195 µM (not active)

$$$$
>  <MOLECULE>
O=C(Nc1ccc(Cl)cn1)c1ccc2c(Cl)c3c(nc2c1)CCC3

>  <STUDY TARGET>
UniProt:P38532

>  <EC50>
22.5 µM (active)

$$$$
>  <MOLECULE>
C=CCOc1ccccc1CN(C(=O)CCl)c1ccc2c(c1)OCO2

>  <STUDY TARGET>
UniProt:P38532

>  <EC50>
4.88 µM (active)

$$$$
>  <MOLECULE>
O=[N+]([O-])c1ccc(N2CCN(Cc3ccc4c(c3)OCO4)CC2)nc1

>  <STUDY TARGET>
UniProt:P38532

>  <EC50>
> 195 µM (not active)

$$$$
>  <MOLECULE>
CC1CCCN(S(=O)(=O)c2ccc(Br)s2)C1 (stereo unspecified)

>  <STUDY TARGET>
UniProt:P38532

>  <EC50>
> 195 µM (not active)

$$$$
>  <MOLECULE>
C=CCSc1nc(N)cc(O)n1

>  <STUDY TARGET>
UniProt:P38532

>  <EC50>
> 195 µM (not active)

$$$$
>  <MOLECULE>
CCC(C(=O)NC(C)(C)C)N(Cc1ccc(F)cc1)C(=O)c1snc(C(N)=O)c1N (stereo unspecified)

>  <STUDY TARGET>
UniProt:P38532

>  <EC50>
> 195 µM (not active)

$$$$
>  <MOLECULE>
O=C1NC(=O)C(CCc2ccncc2)(CCc2ccncc2)C(=O)N1Cc1ccccc1

>  <STUDY TARGET>
UniProt:P38532

>  <EC50>
> 195 µM (not active)

$$$$
>  <MOLECULE>
O=C1NC(=O)C2(CCc3ccccc32)N1 (stereo unspecified)

>  <STUDY TARGET>
UniProt:P38532

>  <EC50>
> 195 µM (not active)

$$$$
>  <MOLECULE>
COCCNC(=O)CCc1nnc(C2(c3ccc(Cl)cc3)CCC2)o1

>  <STUDY TARGET>
UniProt:P38532

>  <EC50>
> 195 µM (not active)

$$$$
>  <MOLECULE>
COc1ccc(Cn2nnnc2C(c2cc3cccc(C)c3nc2O)N2CCN(C)CC2)cc1 (stereo unspecified)

>  <STUDY TARGET>
UniProt:P38532

>  <EC50>
> 195 µM (not active)

$$$$
>  <MOLECULE>
COc1ccc(CC(=O)Nc2cc(C)on2)cc1

>  <STUDY TARGET>
UniProt:P38532

>  <EC50>
> 195 µM (not active)

$$$$
